- test-name: Canine pharmacokinetic (PK) study, single IV or oral dose
- stated-conditions: dog, in vivo, po, 1 mg/kg
Each record here notes measured Cmax.

structure-smiles-string: CC(C)C[C@H]1C(=O)O[C@H](Cc2ccc(Cn3cccn3)cc2)C(=O)N(C)[C@@H](CC(C)C)C(=O)O[C@H](C)C(=O)N(C)[C@@H](CC(C)C)C(=O)O[C@H](Cc2ccc(Cn3cccn3)cc2)C(=O)N(C)[C@@H](CC(C)C)C(=O)O[C@H](C)C(=O)N1C
Cmax: 205 ng/mL
//
structure-smiles-string: CC(C)C[C@H]1C(=O)O[C@H](Cc2ccc(Cn3nccc3C3CC3)cc2)C(=O)N(C)[C@@H](CC(C)C)C(=O)O[C@H](C)C(=O)N(C)[C@@H](CC(C)C)C(=O)O[C@H](Cc2ccc(Cn3nccc3C3CC3)cc2)C(=O)N(C)[C@@H](CC(C)C)C(=O)O[C@H](C)C(=O)N1C
Cmax: 178 ng/mL
//
structure-smiles-string: CC(C)C[C@H]1C(=O)O[C@H](Cc2ccc(Cn3cc(C4CC4)cn3)cc2)C(=O)N(C)[C@@H](CC(C)C)C(=O)O[C@H](C)C(=O)N(C)[C@@H](CC(C)C)C(=O)O[C@H](Cc2ccc(Cn3cc(C4CC4)cn3)cc2)C(=O)N(C)[C@@H](CC(C)C)C(=O)O[C@H](C)C(=O)N1C
Cmax: 127 ng/mL
//
structure-smiles-string: CC(C)C[C@H]1C(=O)O[C@H](Cc2ccc(Cn3cc(Br)cn3)cc2)C(=O)N(C)[C@@H](CC(C)C)C(=O)O[C@H](C)C(=O)N(C)[C@@H](CC(C)C)C(=O)O[C@H](Cc2ccc(Cn3cc(Br)cn3)cc2)C(=O)N(C)[C@@H](CC(C)C)C(=O)O[C@H](C)C(=O)N1C
Cmax: 152 ng/mL

# credit: patent US11331369B2
